The measured values listed here are drawn from PubChem BioAssay.

# experiment notes: endothelial E-selectin expression blockers – imaging, HUVEC, immunofluorescence, MLSMR starter and 10KST1 sets, primary screen (AID 487);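 for inhibition: signal is fraction of cell area covered by stained E-selectin grains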
# stated conditions: HUVEC TNFalpha-induced E-selectin immunofluorescence imaging, at 2 µM; stronger effect = higher value
Give condition met when the value for inhibition is at least -90%. Give condition not met when it is less.

(Q) Textbook exercise: given the entry COc1ccccc1-c1cc(C(=O)Nc2cc(C)nn2-c2ccccc2)no1 , state whether its inhibition is greater than or equal to -90%.
(A) condition met

(Q) Textbook exercise: given the entry O=C(CSc1nnc(SCc2ccc(Cl)cc2)s1)N1CCN(C(=O)c2ccco2)CC1 , state whether its inhibition is greater than or equal to -90%.
(A) condition not met

(Q) Textbook exercise: given the entry O=C(c1ccc(S(=O)(=O)N2CCOCC2)cc1)N1CCc2ccccc2C1 , state whether its inhibition is greater than or equal to -90%.
(A) condition not met

(Q) Textbook exercise: given the entry O=C(NCc1cccs1)C(Cc1ccccc1)NS(=O)(=O)c1cccs1 (stereo not drawn) , state whether its inhibition is greater than or equal to -90%.
(A) condition met

(Q) Textbook exercise: given the entry COc1ccc(CC(=O)OCn2nnc3ccccc3c2=O)cc1 , state whether its inhibition is greater than or equal to -90%.
(A) condition met

(Q) Textbook exercise: given the entry O=C(COC(=O)c1ccc(Br)o1)Nc1ccc(S(=O)(=O)N2CCCC2)cc1 , state whether its inhibition is greater than or equal to -90%.
(A) condition not met

More entries:
(Q) Textbook exercise: given the entry CC(C)(C)n1ncc2c(=O)n(CC(=O)NCc3ccccc3)cnc21 , state whether its inhibition is greater than or equal to -90%.
(A) condition not met

(Q) Textbook exercise: given the entry O=C(Nc1cccc2ncccc12)c1ccc2c(c1)OCCO2 , state whether its inhibition is greater than or equal to -90%.
(A) condition met

(Q) Textbook exercise: given the entry COc1cc(S(=O)(=O)NC2CCCCC2)ccc1Cl , state whether its inhibition is greater than or equal to -90%.
(A) condition met

----------
# experiment notes: inhibitors of TNFa-induced NFkB p65 translocation, primary screen, imaging, HUVEC, MLSMR starter and 10KST1 sets (AID 438);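 note: compound added about 3h40 before a 20 min TNFalpha stimulation; signal is the nuclear over cytoplasmic p65 intensity ratio per well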
# stated conditions: HUVEC TNFa-induced p65 nuclear translocation; at 2 µM, stronger effect = higher value, 0% TNFa-plus-vehicle, 100% no-TNFa wells
Calls of active or inactive are those of the source.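 Rule for the calls: active = inhibition above 20% together with a positive visual image hit; inconclusive = visual image hit but inhibition not above 20%; inactive = no visual image hit.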
Assign inhibition to each entry below.

A selection of reference data follows.
(Q) // fetch inhibition given entry O=C(Nc1c(C(=O)NCc2ccco2)cnn1-c1ccccc1)c1ccc(F)cc1
(A) 6.3% (inactive)

(Q) // fetch inhibition given entry O=C(CSc1nnc(-c2cccnc2)o1)OC1CCCCC1
(A) -3.9% (inactive)

(Q) // fetch inhibition given entry COc1ccc(CC(=O)Nc2c3c(nn2-c2cccc(Cl)c2)CS(=O)(=O)C3)cc1
(A) -11.6% (inactive)

(Q) // fetch inhibition given entry Cc1cccc(NC(=O)CC2NC3CCCCC3NC2=O)c1 (stereo unspecified)
(A) -4.8% (inactive)

(Q) // fetch inhibition given entry CCCCSc1nc2c(cnn2-c2ccc(Cl)cc2)c(=O)[nH]1
(A) -0.3% (inactive)

// batch mode: one inhibition value per listed entry
1. COc1ccc(/C=N/n2cnnc2SCc2ccc(OC)cc2)cc1
2. CC12CN3CCN(CC(C3)C1(O)CN1CCCCC1)C2 (stereo unspecified)
3. CCOC(=O)C1=C(CC)Nc2ccccc2N=C1NC(=O)Cn1cnc2ccccc2c1=O
4. CCOC(=O)Nc1ccc(OC)cc1S(=O)(=O)N1CCCCC1
5. CN1CCN(c2ccc(Cl)cc2NC(=O)c2cccc(S(=O)(=O)N(C)C)c2)CC1
6. Clc1ccc(Cn2ncc3c(NCc4cccnc4)ncnc32)cc1

(A)
1. 3.1% (inactive)
2. 1.7% (inactive)
3. 6.3% (inactive)
4. 3.3% (inactive)
5. 0.5% (inactive)
6. -13.5% (inactive)

// batch mode: one inhibition value per listed entry
1. CCOc1ccccc1C1CC(=O)Nc2cc3c(cc21)OCO3 (stereo unspecified)
2. N#CCCN(Cc1cccnc1)C(=O)Nc1ccc(Cl)c(Cl)c1
3. COc1cc(CC(=O)Oc2ccc3c(c2)OCO3)cc(OC)c1OC
4. Cc1cc2c(=O)n(Cc3ccco3)c(SCC(=O)NCc3ccco3)nc2s1
5. CN(C)C(=O)CSc1nnc([C@H](Cc2c[nH]c3ccccc23)NC(=O)OC(C)(C)C)o1
6. O=C(CSc1nc(-c2ccc(F)cc2)cs1)N1CCOCC1
7. CCCc1cc(C(=O)Nc2sc(C)c(C)c2C(=O)OCC)no1

(A)
14.4% (inactive)
3.1% (inactive)
1.1% (inactive)
3.1% (inactive)
2.2% (inactive)
9.3% (inactive)
2.3% (inactive)

// batch mode: one inhibition value per listed entry
1. COc1ccc(-c2nsc(SCC(=O)Nc3cc(C)on3)n2)cc1
2. CCOC(=O)C(C)C1(O)c2ccccc2-c2ncccc21 (stereo unspecified)
3. Cc1nc2nc(Cc3ccccc3)[nH]n2c(=O)c1Cc1ccccc1
4. Cc1nc2ccccc2n1CCC(=O)Nc1cccc(F)c1

(A)
-7% (inactive)
4.9% (inactive)
-3.3% (inactive)
-4.8% (inactive)

----------
Assign slope to each entry below.
# experimental system: Alpha-2C adrenergic receptor (Homo sapiens)
# experiment notes: compounds altering alpha2C-coupled GIRK flux – cell-based, HEK293 alpha2C/GIRK1/2, thallium flux, primary screen (AID 624);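 note: slope of fluorescence ratio to pre-addition baseline per second over 15 to 24 s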
# stated conditions: thallium flux BTC fluorescence, at 10 µM, actives lie on both sides
Active and inactive are the calls of the source.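 How the source made its calls: active means fluorescence slope after compound addition differing from the mean of all screened samples at 99.7% confidence, in either direction; inactive means the rest.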

(Q) // fetch slope given entry COC(=O)Cn1ncc2c(C)n(Cc3ccccc3)c(C)c2c1=O
(A) 0.00743 (inactive)

(Q) // fetch slope given entry COC(=O)c1cccc(NC(=O)CN2CCN(Cc3ccccc3)CC2)c1
(A) 0.0056 (inactive)

(Q) // fetch slope given entry CNC(=O)CSc1nc2c(c(=O)n(C)c(=O)n2C)n1Cc1ccc(C)cc1
(A) 0.00619 (inactive)

(Q) // fetch slope given entry Cc1cccc(C(=O)O)c1NC(=O)c1ccc(F)cc1
(A) 0.00577 (inactive)

(Q) // fetch slope given entry CCOC(=O)n1c(=O)oc2cc(S(=O)(=O)N3CCCCC3)ccc21
(A) 0.00583 (inactive)

// batch mode: one slope value per listed entry
1. CC(=O)/C(C[N+]1(C)CCCCC1)=N\O
2. COc1ccc(C)cc1NC(=O)c1nc2nc(C)cc(C)n2n1
3. CCOc1ccccc1N1C(=O)c2ccc(C(=O)Nc3cccnc3)cc2C1=O
4. CCOC(=O)c1c(NC(=O)c2cccs2)sc2c1CCN(C(=O)OCC)C2
5. COCCCNC(=O)CC1Oc2ccccc2NC1=O (stereo unspecified)

(A)
0.00495 (inactive)
0.00674 (inactive)
0.00693 (inactive)
0.0082 (inactive)
0.00685 (inactive)

(Q) // fetch slope given entry O=C(CNCCC1=CCCCC1)Nc1ccccc1N1CCCCC1
(A) 0.00492 (inactive)

----------
# experiment notes: blockers of RIG-like receptor reporter activation – cell-based, Sendai virus stimulus, luciferase, 10K MLSCN set, TLR/RLR signaling modifier project, primary screen (AID 602276);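 note: firefly luciferase from ISG56 promoter only with Renilla not read in this screen; 0% = Sendai virus plus DMSO and 100% = medium plus DMSO without virus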
# stated conditions: HEK293 RL24 IRF3 luciferase reporter, at 10 µM, stronger effect = higher value
measurement label: inhibition (%)
Answers are plain numbers, in %.

A selection of reference data follows.
(Q) // fetch inhibition given entry Cc1c(Cl)cccc1NC(=O)CCN1CCCCC1
(A) 17.5

(Q) // fetch inhibition given entry CC(=O)Nc1ccccc1OCc1nnc(-c2cccs2)o1
(A) -27

(Q) // fetch inhibition given entry CCOC(=O)/C=C1\SCC(=O)N1Cc1nnc(-c2ccccc2Br)o1
(A) 12.8

(Q) // fetch inhibition given entry COCCN(CCOC)C(=O)CCn1c(=O)oc2ccccc21
(A) 17.5

// batch mode: one inhibition value per listed entry
1. Cc1cccc(OCC(=O)Nc2cc(C)ccc2O)c1
2. CC(=O)NC1(C(F)(F)F)NC(=O)N(CC(C)C)C1=O (configuration not stated)
3. CCN(CC)C(=O)COc1ccc2oc(C)c(C(=O)OC(C)C)c2c1
4. CC(C)(C)c1ccc2c(c1)OCC(C(=O)O)O2 (configuration not stated)

(A)
10.8
-14.7
2.59
-8.63

// batch mode: one inhibition value per listed entry
1. CCOc1cc(C2NC(=O)N(C)C(C)=C2C(=O)OC)cc(Br)c1O (configuration not stated)
2. Cc1ccccc1NS(=O)(=O)c1cc(C(=O)N2CCCC2)ccc1C
3. Cc1cc(C)n(C(C)n2nc(C)cc2C)n1
4. COc1ccc(CCn2c(-c3ccco3)nc3ccccc3c2=O)cc1OC

(A)
-0.511
-10.7
11.8
-9.43

----------
# experiment notes: endothelial E-selectin expression blockers – imaging, HUVEC, immunofluorescence, MLSMR starter and 10KST1 sets, primary screen (AID 487);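 for nuclei count: 100% = median nuclei count of all wells on the same plate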
# stated conditions: HUVEC TNFalpha-induced E-selectin immunofluorescence imaging, at 2 µM; measured here: cell number, toxicity
measurement label: nuclei count (%)
Numbers only, in %.

(Q) // fetch nuclei count given entry COc1ccc(C)cc1NC(=O)c1nc2nc(C)cc(C)n2n1
(A) 124

(Q) // fetch nuclei count given entry CCC(=O)N1CCc2cc(Br)cc(S(=O)(=O)C3(C(=O)OC)CC3)c21
(A) 97.1

// batch mode: one nuclei count value per listed entry
1. O=C1CCCCCC1C1(O)C(=O)Nc2ccccc21 (configuration not stated)
2. CCCCn1c(SCC(=O)NCc2ccccc2)nc2ccc(N3CCOCC3)cc2c1=O
3. C/C(=C(\C#N)C(=O)NCCCN1CCOCC1)N(C)C
4. COCCn1nnnc1SCC(=O)N1CCCCC1

(A)
1: 116; 2: 110; 3: 115; 4: 121

// batch mode: one nuclei count value per listed entry
1. O=C(Nc1ccccc1C(=O)NCC1CCCO1)c1ccco1 (configuration not stated)
2. Cc1noc(NS(=O)(=O)c2ccc(NC(=O)CCC3CCCC3)cc2)c1C
3. COC(=O)COc1ccc(C(=O)OC)cc1
4. COc1cccc(C2CC(c3ccccc3)n3ncnc3N2)c1 (configuration not stated)

(A)
1: 123; 2: 115; 3: 102; 4: 82

// batch mode: one nuclei count value per listed entry
1. COc1cccc(OCCn2ccnc2)c1
2. CN(C)S(=O)(=O)N1CCN(S(=O)(=O)c2ccc(F)cc2)CC1

(A)
120
141
